- Test system: Enterococcus faecium
- PROTOCOL SUMMARY: Antibacterial activity against vancomycin-resistant Enterococcus faecium ATCC 700221 after 18 hrs by CLSI broth microdilution method
- Format: functional
- RUN PARAMETERS: ATCC 700221, 18 h
TEST READOUT: log10 of MIC (log10 of the value in µg/mL)
Hello, just confirming the data are log10 of MIC with units of µg/mL.

CCN(C)C(=N)c1ccc2cc(-c3ccc(-c4cc5ccc(C(=N)N(C)CC)cc5[nH]4)cc3)[nH]c2c1    0.00

### Prompt Given the compound CN(C)C(=N)c1ccc2cc(-c3ccc4cc(-c5cc6ccc(C(=N)N(C)C)cc6[nH]5)ccc4c3)[nH]c2c1 , what is its reported log10 of MIC?
### Response 1.51

### Prompt Moving on to CN1CCN(C(=N)c2ccc3cc(-c4ccc(-c5cc6ccc(C(=N)N7CCN(C)CC7)cc6[nH]5)cc4)[nH]c3c2)CC1
### Response 0.90

### Prompt Moving on to COCCNC(=N)c1ccc2cc(-c3ccc(-c4cc5ccc(C(=N)NCCOC)cc5[nH]4)cc3)[nH]c2c1
### Response -0.30

### Prompt Moving on to CN(C)C(=N)c1ccc2cc(-c3cnc(-c4cc5ccc(C(=N)N(C)C)cc5[nH]4)s3)[nH]c2c1
### Response 0.00

### Prompt Moving on to CN(C)C(=N)c1ccc2cc(-c3ccc(-c4cc5ccc(C(=N)N(C)C)cc5[nH]4)cc3)[nH]c2c1
### Response 0.00

### Prompt Moving on to CCC(CC)NC(=N)c1ccc2cc(-c3ccc(-c4cc5ccc(C(=N)NC(CC)CC)cc5[nH]4)cc3)[nH]c2c1
### Response 0.30

Origin of the recorded values: ChEMBL document CHEMBL4229379
